- Assayed system: ETS1 (UniProt P14921)
- Sequence: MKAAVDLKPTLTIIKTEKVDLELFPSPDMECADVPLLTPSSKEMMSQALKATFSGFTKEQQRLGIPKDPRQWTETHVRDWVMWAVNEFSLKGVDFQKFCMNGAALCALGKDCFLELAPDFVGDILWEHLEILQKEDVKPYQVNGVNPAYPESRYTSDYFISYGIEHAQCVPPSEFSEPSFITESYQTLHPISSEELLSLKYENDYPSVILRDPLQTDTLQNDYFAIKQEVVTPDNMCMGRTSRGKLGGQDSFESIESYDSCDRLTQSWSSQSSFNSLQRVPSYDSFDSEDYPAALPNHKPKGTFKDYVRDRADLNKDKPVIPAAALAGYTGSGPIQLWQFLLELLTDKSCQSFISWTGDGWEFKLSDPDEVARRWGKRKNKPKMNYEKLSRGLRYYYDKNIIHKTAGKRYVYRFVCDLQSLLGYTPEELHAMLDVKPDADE
- Assay summary: ETS1 binding intensity (PBM fluorescence) in presence of RUNX1, normalised to ETS1-only experiment (arbitrary fluorescence units); higher = stronger binding
- Recorded conditions: ETS1 concentration 1 nM; RUNX1 concentration 25 nM
Readout name: ETS1 binding intensity

Entry sequence	Readout name	Result value
ATCTCAACTAGGAAATGTTTTTGTGACCACAAAGGG	ETS1 binding intensity	2310
ACAGCTCACACAGGAAATACAAACCTCAAAAAGCAA	ETS1 binding intensity	7480
GCTTCGTTTCCCGCCGGGGCTCACCGCGCCCCCCTA	ETS1 binding intensity	615
ACAGGAAACTAAAATAAGAACAGAAAACCAAGACAG	ETS1 binding intensity	852
GACATGCTCCGGAAGCTTGAGGTTTTAACGTTAAGG	ETS1 binding intensity	5030
ACACTGGCCGGAAGGGGCGGGACCGCGAGTTAAGAG	ETS1 binding intensity	2380

---

- Assayed system: RUNX1 (UniProt Q01196)
- Sequence (Q01196 whole entry): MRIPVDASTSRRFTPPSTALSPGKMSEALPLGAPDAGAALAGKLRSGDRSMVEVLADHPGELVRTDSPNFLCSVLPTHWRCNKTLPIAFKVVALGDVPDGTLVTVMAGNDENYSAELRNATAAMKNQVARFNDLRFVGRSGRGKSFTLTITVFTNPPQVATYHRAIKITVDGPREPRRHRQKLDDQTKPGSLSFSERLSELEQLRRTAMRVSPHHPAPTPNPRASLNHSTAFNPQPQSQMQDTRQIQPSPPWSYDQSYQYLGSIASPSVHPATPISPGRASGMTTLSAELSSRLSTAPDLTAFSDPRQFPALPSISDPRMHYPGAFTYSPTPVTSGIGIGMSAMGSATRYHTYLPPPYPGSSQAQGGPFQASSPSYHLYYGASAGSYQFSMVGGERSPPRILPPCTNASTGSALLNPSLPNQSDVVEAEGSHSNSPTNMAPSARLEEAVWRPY
- Assay summary: RUNX1 binding intensity (PBM fluorescence), RUNX1 alone (arbitrary fluorescence units); higher = stronger binding
- Recorded conditions: RUNX1 concentration 2 nM; ETS1 concentration 0 nM

Entry sequence	RUNX1 binding intensity
ACTGCACGGCTGGGAGGATGTGGTCACACACGCCAC	869
GAAGTGTGCTCTTCCGGTACCTGCGGTTCGTTGCGC	808
TGTCCACCTCTACGGAAGTGCGCCGCAGTCCGCCAG	792
GAGGAGGAAAGCGGAAGCGCTGCCCGCAGTGGTAGG	651
AGTGGCAGTGCAGGAAGTGGTTTGTCTGGTACAATC	788
TCCGGAAATAGATAATATCTAGTTAAACCTCAAAAT	786
TGCAATCAGGAAGCCTGCCCCTCTAGAACCACAAAA	882
CCCCGCGGAACTCTGGCACAGTCAGCTGACCGCAGA	1600
TGGCTTTGCAGAAGGAAGCTGTGGTTTCTGGTCTTC	869
GCCACTTCCTGGAAAACAGTAATTACCACACGTCTC	1100
GCCCAGGGCGGCCGGAAGTTTGCGGGGCGGGGCGGA	754
AGCCGTCATTCAGGATGTGGTGACAGACATGGAGAC	769
CCACCGTCCCCGGAAATAACCGCGCCTGCCTCTCAA	1330
ACAGACAGCATCCTGAGCTCGTGGTTAGAACACCCT	841
CCACGGCTGGCTTCCTGTGTGGTTGGCACGCCTTAC	772
GCTGGGGCAGGAAGCTTCTAGGCCACAGACAGGACG	711
GGCGGGGCATCCGGCAGCACCGCCTGCGGGCGCCCG	667
TTCAACAAGGTTTTCCTGTGGTTACCCCATGCTTTG	1040
GCCCGGAAGCGCGACGCTGGAGCTGCGGGGTTACCA	662
CTTTGCTGCCGCCTTCCTGTGCGGGGCCGTGGCGGC	720
TGGAAGCGGCTTCCGGGGTGAATGCGGTTGGATCGT	1030
CGCCGAACTTCCGGCAGTAAATTCCGTGGTTTCCCT	911
GGGATCTACTTCCTCTCTCGGCCGCGGCCGCAGCAC	792
CTAGGCCACCGGAAGTCTCCGCAGTGGTTTTGCAAA	762
CAGGCAGGATGTTGACTCAGCTGCCAAGTGGTTTTG	719

---

- Assayed system: ETS1 (UniProt P14921)
- Sequence: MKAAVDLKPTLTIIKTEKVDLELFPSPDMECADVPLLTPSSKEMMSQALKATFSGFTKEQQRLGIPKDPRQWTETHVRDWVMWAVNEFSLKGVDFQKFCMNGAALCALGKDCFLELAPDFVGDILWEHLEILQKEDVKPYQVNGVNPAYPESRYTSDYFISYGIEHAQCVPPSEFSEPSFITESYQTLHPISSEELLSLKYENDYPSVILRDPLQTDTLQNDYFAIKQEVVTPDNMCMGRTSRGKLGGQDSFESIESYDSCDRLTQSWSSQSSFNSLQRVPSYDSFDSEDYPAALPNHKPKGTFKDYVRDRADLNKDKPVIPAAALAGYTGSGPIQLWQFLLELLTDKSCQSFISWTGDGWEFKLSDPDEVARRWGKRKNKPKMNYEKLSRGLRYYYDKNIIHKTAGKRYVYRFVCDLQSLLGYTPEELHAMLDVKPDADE
- Assay summary: ETS1 binding intensity (PBM fluorescence) in presence of RUNX1, normalised to ETS1-only experiment (arbitrary fluorescence units); higher = stronger binding
- Recorded conditions: ETS1 concentration 1 nM; RUNX1 concentration 25 nM
Readout name: ETS1 binding intensity

Entry sequence	Readout name	Result value
ACAAAACAAACACATCCCCCAAACCGCCAAACTACA	ETS1 binding intensity	627
CTCCCCCAGCACATCCTCTGCCACCGCTGCCTTTCC	ETS1 binding intensity	361
TTTATCATGAATGCAGGATGTGGGCAAACTCGCATC	ETS1 binding intensity	6100
AAGACAACATCCTGCCGGCACAGCCTGCGGGTTACT	ETS1 binding intensity	1480
GGGCCCGGGCCAGGAAGTGGTTTTGCAGAGGTGTTT	ETS1 binding intensity	7660
CTCTAGAGGCTTCCTGCCCAACCACCAAGAAAAAGC	ETS1 binding intensity	668
GTGCGGCGGGAAACGCGTTCCCCGGCAACCGCGCCC	ETS1 binding intensity	479
CCCCGCCTCTTCCGCTTCTGTGGTCTGATCTGCCTG	ETS1 binding intensity	1040
CTTTCGGGGGCGGAAGTTGCGGTGCATTGTAGGTTC	ETS1 binding intensity	20000
GCAGGCGGAGCTTGAGGAAACCGCAGATAAGTTTTT	ETS1 binding intensity	2510
TTCAACAAGGTTTTCCTGTGGTTACCCCATGCTTTG	ETS1 binding intensity	451
CACCGACCGGAAGGGCCCCAAGGATCCCCGCAGCAG	ETS1 binding intensity	2710
TTCTTGTTTCCTGTCAAGGGAGGCTCTGACCACCTC	ETS1 binding intensity	753
GTAGCCGGGTGTTCCGGAGCGCTGCGGGCAAAGCAG	ETS1 binding intensity	539
CAACGGCGTAGCCGGAAGTCAGTGGTTTTCGCCCCA	ETS1 binding intensity	18200
GTTGGGTGGGGAAGTGGATGGTGGTTTTGGCAGAGG	ETS1 binding intensity	713
TGCTTCCCGTCCGTGTCGCGGCCCTGCGGTTGGCGG	ETS1 binding intensity	813
GCCACTTCCGGTCACTCCCCGCTGCGGCCTCGCGCT	ETS1 binding intensity	8280
GCCTGTGGAGTTGCAGGATGTGGTTGGCGAAAAGAA	ETS1 binding intensity	7880
GCCACAGCCGGAAGCAGGCTGACCACAAGTGCTAAG	ETS1 binding intensity	18700
GCGATCGGAGCGGAAGTGGAGCTACCGCCACCGCCG	ETS1 binding intensity	8910
AGATTTTGTCTTCCTGTTGTGGCAACATCTGTAGAA	ETS1 binding intensity	406
GCCCAGTTCTCGCATCCGGTCTGCGGCGCGCTCGGG	ETS1 binding intensity	5020
GCAAGGTGGAGAGGAGGATGTGGCTTACCAGCAATT	ETS1 binding intensity	1990
GGGCTTCCGGCTGAACCCATGGCTGCGGGCTGTGCT	ETS1 binding intensity	329

---

- Assayed system: ETS1 (UniProt P14921)
- Sequence: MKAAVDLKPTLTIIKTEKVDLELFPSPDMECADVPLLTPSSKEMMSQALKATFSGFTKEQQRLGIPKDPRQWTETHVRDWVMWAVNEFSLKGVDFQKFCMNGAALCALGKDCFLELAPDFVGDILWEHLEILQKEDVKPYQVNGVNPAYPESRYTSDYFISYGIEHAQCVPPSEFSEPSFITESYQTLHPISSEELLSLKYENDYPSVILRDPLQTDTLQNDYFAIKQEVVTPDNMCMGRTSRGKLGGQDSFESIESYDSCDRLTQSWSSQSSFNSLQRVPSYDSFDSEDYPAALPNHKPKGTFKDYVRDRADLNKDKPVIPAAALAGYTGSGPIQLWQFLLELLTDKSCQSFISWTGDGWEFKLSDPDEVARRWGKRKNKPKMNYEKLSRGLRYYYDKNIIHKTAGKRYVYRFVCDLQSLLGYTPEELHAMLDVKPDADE
- Assay summary: ETS1 binding intensity (PBM fluorescence) in presence of RUNX1, normalised to ETS1-only experiment (arbitrary fluorescence units); higher = stronger binding
- Recorded conditions: ETS1 concentration 1 nM; RUNX1 concentration 25 nM
Catalogue of ETS1 binding intensity readings, one per entry.
Readout name: ETS1 binding intensity

Entry sequence	Readout name	Result value
GTAAAAGAGGAAGTAACACCTCCTTGCGGTTGAGAC	ETS1 binding intensity	6840
CTTCAAAGTCAGGAAACCGTTAAACCACACTGCATC	ETS1 binding intensity	1910
GTGTTTCCTCTTTGTTTTGGGGCTGTGGTTGCCACA	ETS1 binding intensity	600
TCTAGTAAAAGAGGAAGTTCTTAACCACATTTCCAT	ETS1 binding intensity	9250
CAGTTCCAGGAAGCAGCCCCAAGCTTGTGGCCCTGA	ETS1 binding intensity	305
GACTATGTGCTTCCGGTCTCCAATACCGCAGGAGGG	ETS1 binding intensity	13600
TGCGACGGAAGCAGGAACTTGCTAACCACAAAACCC	ETS1 binding intensity	13200
CTCCTTCCTGTGTGTTACTCTTAAAAACCACAGAGG	ETS1 binding intensity	1780
TTGTGCTTCCTGCTCATGAGATTGCTAGCGGTTACT	ETS1 binding intensity	707
AAATGTGGCCGGATGCTCTGTGGGCGGGCGGCAGCT	ETS1 binding intensity	3770
TTTAGACACCGCTTCCTGCCACAAGCCCAAGACTTA	ETS1 binding intensity	839
TGAGCCCTACTTCCGGTGGTGCTGTGGTCTGCCCCT	ETS1 binding intensity	13200

// data source = the supplement of paper PMC10681739
